B1: library; a variant is named by its letters at N, in order (parent)
chain: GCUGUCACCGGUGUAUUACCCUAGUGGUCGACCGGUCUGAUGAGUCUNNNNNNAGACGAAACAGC

# Variants of: B1
# ASSAY_METHOD_TEXT: normalized RNA/DNA level without ligand (relative to sTRSVctl = 100) (log10 (% of sTRSVctl)); ligand: hypoxanthine (xanthine aptamer); higher = less ribozyme self-cleavage, higher mRNA level
# MEASUREMENT_CONDITIONS: HEK293T, reporter: mCherry (pCS4076), ligand present: no
REPORTED_METRIC: normalized RNA/DNA level without ligand (log10)
Returns: the value as a bare number; no unit string appended.

Solved entries:
# RESIDUE_STRING, REPORTED_VALUE
data = [
    ("GCUGUCACCGGUGUAUUACCCUAGUGGUCGACCGGUCUGAUGAGUCUGUACAGAGACGAAACAGC [GUACAG]", 1.45),
    ("GCUGUCACCGGUGUAUUACCCUAGUGGUCGACCGGUCUGAUGAGUCUGUGUAUAGACGAAACAGC [GUGUAU]", 1.74),
    ("GCUGUCACCGGUGUAUUACCCUAGUGGUCGACCGGUCUGAUGAGUCUAAUCGAAGACGAAACAGC [AAUCGA]", 1.63),
]

// recorded normalized RNA/DNA level without ligand (log10) for GCUGUCACCGGUGUAUUACCCUAGUGGUCGACCGGUCUGAUGAGUCUUAGUGAAGACGAAACAGC [UAGUGA] : 1.57

// recorded normalized RNA/DNA level without ligand (log10) for GCUGUCACCGGUGUAUUACCCUAGUGGUCGACCGGUCUGAUGAGUCUCCGACUAGACGAAACAGC [CCGACU] : 1.82

// recorded normalized RNA/DNA level without ligand (log10) for GCUGUCACCGGUGUAUUACCCUAGUGGUCGACCGGUCUGAUGAGUCUUGCAUGAGACGAAACAGC [UGCAUG] : 1.75

// recorded normalized RNA/DNA level without ligand (log10) for GCUGUCACCGGUGUAUUACCCUAGUGGUCGACCGGUCUGAUGAGUCUUUUCUCAGACGAAACAGC [UUUCUC] : 1.96

// recorded normalized RNA/DNA level without ligand (log10) for GCUGUCACCGGUGUAUUACCCUAGUGGUCGACCGGUCUGAUGAGUCUUUCUGCAGACGAAACAGC [UUCUGC] : 1.92

// recorded normalized RNA/DNA level without ligand (log10) for GCUGUCACCGGUGUAUUACCCUAGUGGUCGACCGGUCUGAUGAGUCUUAGACGAGACGAAACAGC [UAGACG] : 1.64

// recorded normalized RNA/DNA level without ligand (log10) for GCUGUCACCGGUGUAUUACCCUAGUGGUCGACCGGUCUGAUGAGUCUUUCAGCAGACGAAACAGC [UUCAGC] : 1.93

// recorded normalized RNA/DNA level without ligand (log10) for GCUGUCACCGGUGUAUUACCCUAGUGGUCGACCGGUCUGAUGAGUCUGUGCUAAGACGAAACAGC [GUGCUA] : 1.75

// recorded normalized RNA/DNA level without ligand (log10) for GCUGUCACCGGUGUAUUACCCUAGUGGUCGACCGGUCUGAUGAGUCUGUACCAAGACGAAACAGC [GUACCA] : 1.87

// recorded normalized RNA/DNA level without ligand (log10) for GCUGUCACCGGUGUAUUACCCUAGUGGUCGACCGGUCUGAUGAGUCUAAAGAUAGACGAAACAGC [AAAGAU] : 1.68

// recorded normalized RNA/DNA level without ligand (log10) for GCUGUCACCGGUGUAUUACCCUAGUGGUCGACCGGUCUGAUGAGUCUGACCUGAGACGAAACAGC [GACCUG] : 1.52

// recorded normalized RNA/DNA level without ligand (log10) for GCUGUCACCGGUGUAUUACCCUAGUGGUCGACCGGUCUGAUGAGUCUAAAGCAAGACGAAACAGC [AAAGCA] : 1.77

// recorded normalized RNA/DNA level without ligand (log10) for GCUGUCACCGGUGUAUUACCCUAGUGGUCGACCGGUCUGAUGAGUCUGAACCUAGACGAAACAGC [GAACCU] : 1.92

// recorded normalized RNA/DNA level without ligand (log10) for GCUGUCACCGGUGUAUUACCCUAGUGGUCGACCGGUCUGAUGAGUCUGUCGUGAGACGAAACAGC [GUCGUG] : 1.37

// recorded normalized RNA/DNA level without ligand (log10) for GCUGUCACCGGUGUAUUACCCUAGUGGUCGACCGGUCUGAUGAGUCUGUCUUGAGACGAAACAGC [GUCUUG] : 1.52

// recorded normalized RNA/DNA level without ligand (log10) for GCUGUCACCGGUGUAUUACCCUAGUGGUCGACCGGUCUGAUGAGUCUAGACUGAGACGAAACAGC [AGACUG] : 1.58

// recorded normalized RNA/DNA level without ligand (log10) for GCUGUCACCGGUGUAUUACCCUAGUGGUCGACCGGUCUGAUGAGUCUCCUCGCAGACGAAACAGC [CCUCGC] : 1.92
